- assayRemarks: Cell Viability - LYMP2-011 (AID 969);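 note: cells exposed to compound for 24 hours; 0% = DMSO only and full inhibition = 92 µM tetraoctylammonium bromide; nearly all actives have a fitted effect of over 60% in size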
- settings: LYMP2-011 lymphoblastoid cells viability; series mostly up to 92.2 µM
Records with an inconclusive call do not appear. The source made the active and inactive calls. Calls come from the whole dose curve; as a rule, active = well fitted cell-killing curve with a large enough effect; inconclusive = small, poorly fitted or top-dose-only effect; inactive = flat fitted curve, though single readings scatter.
reportedEndpoint: outcome

compoundStructureString | reportedEndpoint | observedMeasurement
O=c1[nH]ncc2ccccc12 | outcome | inactive
CCCCCCCCOc1ccc(C(=O)O)cc1 | outcome | inactive
Cc1c2ccccc2c(C)c2c1ccc1ccccc12 | outcome | inactive

* * *

- assayRemarks: Cell Viability - LYMP1-002 - Assay at 40 hr (AID 994); note: nearly all actives have a fitted effect of over 60% in size
- settings: LYMP1-002 lymphoblastoid cell viability; series mostly up to 92.2 µM
Records with an inconclusive call do not appear. The source made the active and inactive calls. Calls come from the whole dose curve; as a rule, active = well fitted cell-killing curve with a large enough effect; inconclusive = small, poorly fitted or top-dose-only effect; inactive = flat fitted curve, though single readings scatter.
Labels: 1 = active, 0 = inactive

compound | answerLabel
CCCCC(CC)COCCCN (configuration not stated) | 0
CC(C)(C)C(=O)C1C(=O)c2ccccc2C1=O | 0
C=CC(=O)CC | 0
CCCCCCN | 0
CC(C)COC(=O)COc1cc(Cl)c(Cl)cc1Cl | 0
c1ccc(Nc2cccc3ccccc23)cc1 | 0
Clc1nc2ccccc2nc1Cl | 0
Cc1ccc(C(=O)O)cc1[N+](=O)[O-] | 0
c1ccncc1 | 0
c1cc2c3c(c1)ccc1cccc(c13)C2 | 0
c1ccc2ncccc2c1 | 0
C[Si](C)(C)Cl | 0
O=[N+]([O-])c1ccc(F)cc1F | 0
CCN(CC)c1ccc2c(C)cc(=O)oc2c1 | 0
OC1CCCCC1 | 0
Nc1ccc(N=Nc2ccccc2)c(N)c1 | 0
c1ccc2c(c1)ccc1ccccc12 | 0
COc1ccc(C)cc1N | 0
Oc1ccc2c(c1)OCO2 | 0
Oc1cc(Cl)cc(Cl)c1Cl | 0
Cc1ccc(N)cc1[N+](=O)[O-] | 0
Cc1ccccc1OCC1CO1 (configuration not stated) | 0
CCCC(=O)OC(=O)CCC | 0
CC(=O)OCc1ccc2c(c1)OCO2 | 0
O=C1c2ccccc2C(=O)C1(O)O | 0
O=C(O)/C=C/c1ccc(/C=C/C(=O)O)cc1 | 0
C1CCCNCC1 | 0
N=C1C=CC(=C(c2ccc(N)cc2)c2ccc(N)cc2)C=C1 | 1
CC(=O)CC(=O)Nc1ccccc1 | 0
CCCCCCCC/C=C\CCCCCCCC(=O)N(CCO)CCO | 0
Nc1cnn([C@@H]2O[C@H](CO)[C@@H](O)[C@H]2O)c(=O)n1 | 0
O=[N+]([O-])c1ccccc1Nc1ccccc1 | 0

* * *

- assayRemarks: Cell Viability - LYMP2-012 (AID 982);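 note: cellular ATP by luciferase luminescence where a drop means cytotoxicity; cells exposed to compound for one day before reading; nearly all actives have a fitted effect of over 55% in size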
- settings: LYMP2-012 lymphoblastoid cell viability qHTS; series mostly up to 92.2 µM
Records with an inconclusive call do not appear. The source made the active and inactive calls. Calls follow the shape of the dose curve; as a rule, active = well fitted cell-killing curve with a large enough effect; inconclusive = small, poorly fitted or top-dose-only effect; inactive = flat fitted curve, though single readings scatter.
Labels: class 1 for active, class 0 for inactive

compound | answerLabel
O=[N+]([O-])c1cc(N(CCO)CCO)ccc1NCCO | class 0
CCCCNCC | class 0
CC/C=C/C/C=C/C/C=C/CCCCCCCC(=O)OCC | class 1
Brc1ccc(-c2ccccc2)cc1 | class 0
Brc1cc(Br)c(Oc2cc(Br)c(Br)cc2Br)cc1Br | class 0
C=C1CC[C@H](O)C/C1=C/C=C1\CCC[C@]2(C)[C@@H]([C@H](C)CCCC(C)C)CC[C@@H]12 | class 1
Oc1ccc2c(c1)OCO2 | class 0
CCCCCCCC/C=C\CCCCCCCC(=O)N(CCO)CCO | class 0
CCC(Cl)CC(Cl)C(Cl)C(Cl)C(Cl)C(C)Cl (stereo not given) | class 0
O=C(O)c1ccc([N+](=O)[O-])cc1 | class 0
C/C=C/C=C/C=O | class 1
C/C(Cl)=C/CCl | class 0
CC(CCC(=O)O)(c1ccc(O)cc1)c1ccc(O)cc1 | class 0
c1ccc2ncccc2c1 | class 0
OCC(CBr)(CBr)CBr | class 0
Nc1ccc(N)c(Cl)c1 | class 0
NC(=O)c1ccc([N+](=O)[O-])cc1 | class 0
c1ccc(Nc2cccc3ccccc23)cc1 | class 0
CC(C)S | class 0
N=C1C=CC(=C(c2ccc(N)cc2)c2ccc(N)cc2)C=C1 | class 1
c1ccc2c(c1)ccc1ccccc12 | class 0
C/C=C1/C(=O)C[C@H]2[C@@H]3CCC4=CC(=O)CC[C@]4(C)[C@H]3CC[C@]12C | class 1
OC1CCCCC1 | class 0
CN(C)c1ccc(Cc2ccc(N(C)C)cc2)cc1 | class 0
O=C(O)/C=C/c1ccc(/C=C/C(=O)O)cc1 | class 0
Oc1cc2c(cc1O)[C@H]1c3ccc(O)c(O)c3OC[C@@]1(O)C2 | class 1
C[Si](C)(C)Cl | class 0
Brc1cc(Oc2cc(Br)c(Br)c(Br)c2Br)c(Br)c(Br)c1Br | class 0
Cc1cc(=O)oc2cc(O)cc(O)c12 | class 0
CCNC(=S)NCC | class 0
